target: corticotropin releasing factor 1 receptor; assay: cell-based or functional assay
Ends that are not written are not given here.
readout kind: CRF1R EC50

ZGPPISIDLPIQLLRKMIEIEKQEKEKQQAANNRLLLDTI (C-terminal amide) [SEQ ID NO 78]
> 100 nM
IVLSLDVPIGLLQILLEQRRAAREQATTNARILARV-NH2 [SEQ ID NO 133]
> 100 nM
IVLSLDVPIGLLQILLEQERARAAREQATTNARILARV-NH2 [SEQ ID NO 119]
> 100 nM
ZGPPISIDLPIYLLRKMIEIEKQEKEKQQAANNRLLLDTI (C-terminal amide) [SEQ ID NO 79]
> 100 nM
IVLSLDVPIGLLQILIEIEKQEKEKQQAANNRLLLDTI-NH2 [SEQ ID NO 154]
> 100 nM
